Test system: SK-MEL-28 melanoma
ASSAY_DETAILS: NCI-60 one-dose screen, 48 h (100 = growth as untreated, 0 = no growth, -100 = all killed)
SETUP_CONDITIONS: 10 µM unless noted
About 83,000 compounds went through this panel and 20% of them were active in at least one assay; those are over-represented in the sample as a whole.
Please use Y whenever growth is not below 20%, and N whenever it is.

[[record]]
molecule = "CC(=O)OC1CC2CCC1(C)C2(C)C (stereo not given)"
group = "Y"

[[record]]
molecule = "O=C(c1ccccc1)C(O)C(Br)(CBr)c1ccccc1 (stereo not given)"
group = "Y"


# input Please check the record CC1(C)OCC(COC(c2ccccc2)(c2ccccc2)c2ccccc2)O1 (stereo not given) and state if its growth is at or above 20%.
# output Y

# input Does "Nc1ccc(-c2ccc(N)c(S(=O)(=O)O)c2)cc1S(=O)(=O)O" have a reported growth of at least 20%?
# output Y

# input Does the reported growth for OC(c1cc(C23CC4CC(CC(C4)C2)C3)nc2c(Cl)cc(Cl)cc12)C1CCCCN1 (stereo not given) fall at or above the 20% mark?
# output N

# input Can "Cn1c(-c2ccccc2)c(/C=C/C2=[N+](C)c3ccccc3C2(C)C)c2ccccc21" be said to have growth at or above 20%?
# output Y

# input For this molecule, is measured growth 20% or higher? "Cc1ccc2c(c1)sc(-c1ccc(N(C)C)cc1)[n+]2C"
# output Y

# input Hi, just wondering whether "CN(C)c1ccc(/C=C/c2cc[n+](C)c(/C=C/c3ccc(N(C)C)cc3)c2)cc1" shows growth of 20% or higher.
# output Y

# input Has Cc1ccccc1N=C(N)Nc1ccccc1C (tested in a mixture with another compound) a recorded growth greater than or equal to 20%?
# output Y

# input Textbook exercise: given the entry "CCCCCCCCCCCCCCCc1ccc(C(=O)C[n+]2ccccc2)cc1" , state whether its growth is greater than or equal to 20%.
# output N

----------
Test system: EKVX NSCLC
ASSAY_DETAILS: NCI-60 one-dose screen, 48 h
SETUP_CONDITIONS: 10 µM unless noted
Compounds without any hit were thinned out: in the full panel of roughly 83,000, 20% have a hit. The source made the active and inactive calls. Rule for the calls: active = growth percent below 10; inactive = the rest.
Hi! Could you answer with just one of these? 1.0 for active, 0.0 for inactive

Example results:
[[record]]
compound = "CCc1oc2ccccc2c1C(=O)c1cc(Br)c(O)c(Br)c1"
group = 0.0

[[record]]
compound = "COC(=O)C(=[N+]=[N-])C(=O)c1ccc([N+](=O)[O-])o1"
group = 0.0

[[record]]
compound = "NC(=S)N/N=C\\c1nccc2c(N)cccc12"
group = 0.0

[[record]]
compound = "c1ccc(C2NCCNC2c2ccccc2)cc1 (stereo unspecified)"
group = 0.0

[[record]]
compound = "CCCCCCCCCCCC[N+]1(CCCCCCCCCCCC)CCCC(C)C1 (stereo unspecified)"
group = 1.0


# input Can you look up the reported call for "O=C(c1ccc(O)c(Br)c1)c1ccc(O)c(Br)c1" for me?
# output 0.0

----------
Tested on: UACC-257 melanoma
ASSAY_DETAILS: NCI-60 one-dose screen, 48 h (100 = growth as untreated, 0 = no growth, -100 = all killed)
SETUP_CONDITIONS: 10 µM unless noted
Compounds without any hit were thinned out: in the full panel of roughly 83,000, 20% have a hit.
PROPERTY: growth (%)
Give bare numbers, in %.

Here's what some known entries look like.
[[record]]
compound = "CCC(=O)c1cc([N+](=O)[O-])c(Br)s1"
number = 96.5

[[record]]
compound = "O=[N+]([O-])c1ccc([I+]c2ccccc2)cc1"
number = 29.7

[[record]]
compound = "OCCOSCCO"
number = 102

[[record]]
compound = "COC(=O)[C@]1(C)CCC[C@]2(C)c3ccc(C(C)C)cc3C(=O)[C@@H](Br)[C@@H]12"
number = 92.5

[[record]]
compound = "Cc1onc(-c2ccccc2)c1C(=O)N/N=C/c1cc(Cl)cc(Cl)c1O"
number = 17.4


Dear reader, for each entry below, please note its growth.
1. NCCCN(CCCN)CCCNCc1c2ccccc2c(CNCCCN(CCCN)CCCN)c2ccccc12
2. OC(c1cc(C23CC4CC(CC(C4)C2)C3)nc2c(Cl)cc(Cl)cc12)C1CCCCN1 (stereo not given)

# output
1: 93.2; 2: -69.1

Lab note: each compound below needs its growth filled in.
1. CCOc1ccc(Nc2nc3c(s2)C(=O)c2ccccc2C3=O)cc1
2. O=C(Cc1ccccc1)C(F)(F)F
3. CC1(C)OC2C(COC(c3ccccc3)(c3ccccc3)c3ccccc3)OC(c3c[nH]c4c(N)ncnc34)C2O1 (stereo not given)
4. Cc1ccc2c(c1)sc(-c1ccc(N(C)C)cc1)[n+]2C
5. Nc1ccc(-c2ccc(N)c(S(=O)(=O)O)c2)cc1S(=O)(=O)O
6. COC(=O)c1nc(=S)[nH]c(C(=O)OC)c1C(=O)c1ccc(Cl)c(Cl)c1
7. CCCC[n+]1c(/C=C\c2c(OC)cc(OC)cc2OC)ccc2ccccc21

# output
1: 94.7; 2: 18.1; 3: 74.9; 4: 4.53; 5: 134; 6: 111; 7: -41.5

Hi, could you look up growth for each item in my list?
1. CCOC(=O)/C(=C\c1ccc2ccccc2c1)P(=O)(OCC)OCC
2. COc1ccc2nc3cc(Cl)ccc3c(NCCCCCN3CCCCC3)c2c1
3. N=C1C=C(N)C(=O)c2ccccc21
4. CCCCCCCCCCCCCCCCSC(=NCC)NCC
5. O=C1/C(=C\c2ccc([N+](=O)[O-])cc2)CS(=O)(=O)C/C1=C/c1ccc([N+](=O)[O-])cc1

# output
1. 63.8
2. -74.8
3. -77.2
4. -12.4
5. -89.8

Go through the items and report each one's growth.
1. Cc1nc([N+](=O)[O-])c(Sc2nncc(-c3ccccc3)n2)n1C
2. O=C1C=Cc2ccccc2/C1=C/c1nc(-c2ccccc2)oc1O

# output
1: 29.8; 2: 105

Batch request: growth per item, same order as input.
1. Cc1ccc(NC2=CC(=O)C(=O)c3ccccc32)cc1
2. O=C1c2ccccc2Cc2cccc(Cl)c21
3. O=C1C(=O)c2cccnc2-c2ncccc21
4. CC(=O)c1ccc2c(c1)CCc1ccccc1-2
5. CCCCCCC1N=C(N)N=C(N)N1c1cccc(Cl)c1 (stereo not given)

# output
1. -46.2
2. 104
3. 0.671
4. 98.2
5. 63.9

// batch mode: one growth value per listed entry
1. O=C(CBr)c1ccc(OC(=O)c2ccccc2)cc1
2. CCCCCCCCCCCC1=NCCCN1CCCC
3. Oc1ccccc1N=Cc1ccccc1
4. Cc1cc2cccnc2c2ncccc12
5. CCCCCCCCCCCCCCCC[N+]1(C)CCCC1c1cccnc1 (stereo not given)
6. CC1(C)N=c2cc3c(cc2N1c1ccc(Cl)cc1)=Nc1ccccc1N3c1ccc(Cl)cc1

# output
[87.9, 92.3, 94.3, -1.02, 75.9, 40.5]

For each of the items listed, what is its growth?
1. COC1CC(C)C(OC)c2cc(O)cc(c2O)NC(=O)/C(C)=C/C=C\C(C)C(OC(N)=O)/C(C)=C\C(C)C1OC (stereo not given)
2. COc1cc(-c2ccc(-[n+]3nc(-c4ccc([N+](=O)[O-])cc4)nn3-c3ccc([N+](=O)[O-])cc3)c(OC)c2)ccc1-[n+]1nc(-c2ccc([N+](=O)[O-])cc2)nn1-c1ccc([N+](=O)[O-])cc1
3. NC(=Nc1nc(-c2ccccn2)cc2ccccc12)c1ccccn1
4. COc1cc2c(c(OC)c1OC)-c1ccc(NCc3ccccc3)c(=O)cc1[C@@H](NC(C)=O)CC2
5. CN(C)c1ccc(/C=C/c2sc3ccc4ccccc4c3[n+]2C)cc1
6. O=C1C=CC(=O)c2c(O)c(CO)c(CO)c(O)c21
7. CC(=O)OC1CC2CCC1(C)C2(C)C (stereo not given)

# output
1: 14.4; 2: -42.5; 3: -4.44; 4: 63.4; 5: -48.7; 6: 94.4; 7: 99.6

Hi there! I need growth for each item below, if you can.
1. CCCCCCCCCCCCCCCCCC[S+](C)CC (stereo not given)
2. NC(CS/C(Cl)=C/Cl)C(=O)O (stereo not given)
3. CC(=O)c1c(O)c(C)c(O)c2c1OC1=CC(=O)C(C(C)=O)C(=O)C12C (stereo not given)
4. COc1ccc(C(OCC2OC(n3ccc(NC(=O)c4ccccc4)nc3=O)C(O)C2O)(c2ccccc2)c2ccccc2)cc1 (stereo not given)
5. CCCCCCCCc1cc(Cl)c(O)c(Cl)c1
6. CCOC(=O)C1(C)CCCC1N (stereo not given)

# output
[45.8, 78.3, 97.8, 64.3, 104, 113]
